Each entry below lists one item and its recorded pIC50 value.
Target: CYP 3A4 (Homo sapiens (Human))
Sequence (P08684 whole entry): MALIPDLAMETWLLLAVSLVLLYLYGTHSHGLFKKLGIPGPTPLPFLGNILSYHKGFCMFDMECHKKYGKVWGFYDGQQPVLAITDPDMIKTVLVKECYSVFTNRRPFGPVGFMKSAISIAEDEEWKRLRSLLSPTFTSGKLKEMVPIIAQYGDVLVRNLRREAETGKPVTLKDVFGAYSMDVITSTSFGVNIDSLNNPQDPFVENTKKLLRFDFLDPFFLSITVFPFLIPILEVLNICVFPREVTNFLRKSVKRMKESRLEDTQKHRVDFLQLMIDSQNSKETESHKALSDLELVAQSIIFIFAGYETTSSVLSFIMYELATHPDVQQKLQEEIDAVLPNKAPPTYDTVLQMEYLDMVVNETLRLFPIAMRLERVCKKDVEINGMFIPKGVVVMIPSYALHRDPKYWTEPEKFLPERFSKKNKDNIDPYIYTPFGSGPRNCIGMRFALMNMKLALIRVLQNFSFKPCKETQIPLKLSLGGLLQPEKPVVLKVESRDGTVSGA
Format: in vitro ADME
Conditions: microsomes, 10 min
pIC50: −log10 of the molar value. Non-standard residues stand in square brackets, D forms with d. Residues, ends and D or L forms follow the SMILES beside them. *: point of attachment. dBta = N[C@H](Cc1csc2ccccc12)C(=O)O; Ac4c(3-oxa) = NC1(C(=O)O)COC1; Api = NC1(C(=O)O)CCNCC1; X3 = NCC1(C(=O)*)CCC1

Observe how each entry below is paired with its result.
INSERT INTO results (molecule, result) VALUES
  ('NCCCC[C@@H](NC(=O)[C@H](Cc1ccccc1)NC(=O)[C@@H](Cc1c[nH]c2ccccc12)NC(=O)[C@@H](Cc1csc2ccccc12)NC(=O)C1(CN)CCC1)C(N)=O [Compound 52] (X3-[dBta][dW]F[dK]-NH2)', '< 4.30'),
  ('NC(=O)C1(NC(=O)[C@H](Cc2ccccc2)NC(=O)[C@@H](Cc2c[nH]c3ccccc23)NC(=O)[C@@H](Cc2csc3ccccc23)NC(=O)C2(N)COC2)CCNCC1 [Compound 24] (H-[Ac4c(3-oxa)][dBta][dW]F[Api]-NH2)', '< 4.30'),
  ('NC(=O)C1(NC(=O)[C@H](Cc2ccccc2)NC(=O)[C@@H](Cc2c[nH]c3ccccc23)NC(=O)[C@@H](Cc2csc3ccccc23)NC(=O)[C@@H]2CCCN2)CCNCC1 [Compound 15] (H-P[dBta][dW]F[Api]-NH2)', 5.05);

// next entry
Q: Param item = NC(=O)[C@H](Cc1ccccc1)NC(=O)[C@@H](Cc1c[nH]c2ccccc12)NC(=O)[C@@H](Cc1csc2ccccc12)NC(=O)[C@H]1CNCCO1 ; retrieve measured pIC50.
A: < 4.30
